Reported values: IC50 for Norepinephrine transporter (Rattus norvegicus, UniProt Q9WTR4), one per item.
Lab book: enter the figure in µM, no units written.

>>> print(df.to_string())
                                   compound  assay_result
0  Fc1ccc([C@@H]2CC3CCC(N3)[C@@H]2COc2ccc3c(c2)OCO3)cc1 (some centres undefined)          1.69

Using known records, supply IC50 for Fc1ccc([C@@H]2CC3CCC(N3)[C@H]2COc2ccc3c(c2)OCO3)cc1 (stereo in doubt; 4d) 17.3

Return IC50 for the following compound: Fc1ccc([C@H]2CC3CCC(N3)[C@@H]2COc2ccc3c(c2)OCO3)cc1 (some centres undefined) 2.5

Output measured IC50 for this item: CN1C2CC[C@@H]1C[C@H](c1ccc(F)cc1)[C@@H]2COc1ccc2c(c1)OCO2 5.3

Give recorded IC50. CN1C2CC[C@@H]1C[C@@H](c1ccc(F)cc1)[C@@H]2COc1ccc2c(c1)OCO2 0.123

For CN1C2CC[C@@H]1[C@@H](COc1ccc3c(c1)OCO3)[C@@H](c1ccc(F)cc1)C2 , write its IC50. 12.4

Please give the documented IC50 of Fc1ccc([C@H]2CC3CCC(N3)[C@H]2COc2ccc3c(c2)OCO3)cc1 (stereo in doubt; 4f) 1.99

For the compound CN1C2CC[C@@H]1C[C@H](c1ccc(F)cc1)[C@H]2COc1ccc2c(c1)OCO2 , give its reported IC50. 26.6

For the compound Fc1ccc([C@H]2CC3CCC(N3)[C@H]2COc2ccc3c(c2)OCO3)cc1 (stereo in doubt; 4a) , give its measured IC50 value. 37.4

###

// IC50 collected for Sodium-dependent serotonin transporter (Rattus norvegicus, UniProt P31652)
Give the figure together with its unit, number first.

In [3]: df
Out[3]:
                                   molecule                             target_system  property_label  assay_result
0  CN1C2CC[C@@H]1[C@@H](COc1ccc3c(c1)OCO3)[C@@H](c1ccc(F)cc1)C2  Sodium-dependent serotonin transporter (Rattus norvegicus, UniProt P31652)            IC50        178 nM

Return IC50 (reported value) for this molecule: CN1C2CC[C@@H]1C[C@H](c1ccc(F)cc1)[C@H]2COc1ccc2c(c1)OCO2 52.9 nM

Look up and report measured IC50 for this entry: CN1C2CC[C@@H]1[C@H](COc1ccc3c(c1)OCO3)[C@H](c1ccc(F)cc1)C2 447 nM

Using the record for Fc1ccc([C@H]2CC3CCC(N3)[C@H]2COc2ccc3c(c2)OCO3)cc1 (stereo in doubt; 4f) , state its measured IC50. 19 nM
